Assay: Example 1: multiple-dose randomized 3-way crossover PK study of two IV tramadol regimens vs 100 mg oral q6h
Details: human, plasma, iv, 50 mg, AUC0-48, 50 mg IV regimen (h 0, 2, 4, then q4h to h 44); plasma, mean
Where a name gives a salt, the structure may show the parent alone.
measured_quantity: AUC(0-t)

Determine its reported AUC(0-t): COc1cccc([C@]2(O)CCCC[C@H]2CN(C)C)c1 (racemic) [Tramadol, hydrochloride]
20500 ng·h/mL

###

Assay: Example 1: multiple-dose randomized 3-way crossover PK study of two IV tramadol regimens vs 100 mg oral q6h
Settings: human, plasma, po, 100 mg, C1 h, 100 mg oral q6h to h 42, mean
Where a name gives a salt, the structure may show the parent alone.
measured_quantity: concentration at 1 h (ng/mL)
# unit: ng/mL | format: bare number

Determine its reported concentration at 1 h: COc1cccc([C@]2(O)CCCC[C@H]2CN(C)C)c1 (racemic) [Tramadol, hydrochloride]
278
